Value source: ChEMBL document CHEMBL2331155

Tested on: A549
Test: Cytotoxicity against human A549 cells by MTT assay
Format: functional, cell-based

Molecule: C=C1CC[C@H]2C(C)(C)CCC[C@]2(C)[C@H]1C[C@@]12C[C@H]3C(=O)N(C)[C@@H](C(C)C)C(=O)N3[C@@H]1N(C=O)c1ccccc12
IC50: > 10 µM

Molecule: CC(C)[C@H]1C(=O)N[C@@H](C[C@]23C[C@H]4C(=C[C@H]2N(C=O)c2ccccc23)CC[C@H]2C(C)(C)CCC[C@]42C)C(=O)N1C (mixture of isomers)
IC50: 4.88 µM

Molecule: C=C1CC[C@H]2C(C)(C)CCC[C@]2(C)[C@H]1C[C@@]12C[C@H]3C(=O)N4CCC[C@H]4C(=O)N3[C@@H]1Nc1ccccc12
IC50: > 10 µM

====

Test system: HCT-8
Test: Cytotoxicity against human HCT8 cells by MTT assay
Type: functional, cell-based
pIC50: −log10 of the molar value.
Collected pIC50 values appear next to each entry.

Compound: CC(C)[C@H]1C(=O)N[C@@H](C[C@]23C[C@H]4C(=C[C@H]2N(C=O)c2ccccc23)CC[C@H]2C(C)(C)CCC[C@]42C)C(=O)N1C (mixture of isomers)
pIC50: 5.16
//
Compound: C=C1CC[C@H]2C(C)(C)CCC[C@]2(C)[C@H]1C[C@@]12C[C@H]3C(=O)N(C)[C@@H](C(C)C)C(=O)N3[C@@H]1N(C=O)c1ccccc12
pIC50: < 5.00
//
Compound: C=C1CC[C@H]2C(C)(C)CCC[C@]2(C)[C@H]1C[C@@]12C[C@H]3C(=O)N4CCC[C@H]4C(=O)N3[C@@H]1Nc1ccccc12
pIC50: < 5.00
